- MEASURED TARGET: UniProt:Q64346
- Sequence (Q64346 whole entry): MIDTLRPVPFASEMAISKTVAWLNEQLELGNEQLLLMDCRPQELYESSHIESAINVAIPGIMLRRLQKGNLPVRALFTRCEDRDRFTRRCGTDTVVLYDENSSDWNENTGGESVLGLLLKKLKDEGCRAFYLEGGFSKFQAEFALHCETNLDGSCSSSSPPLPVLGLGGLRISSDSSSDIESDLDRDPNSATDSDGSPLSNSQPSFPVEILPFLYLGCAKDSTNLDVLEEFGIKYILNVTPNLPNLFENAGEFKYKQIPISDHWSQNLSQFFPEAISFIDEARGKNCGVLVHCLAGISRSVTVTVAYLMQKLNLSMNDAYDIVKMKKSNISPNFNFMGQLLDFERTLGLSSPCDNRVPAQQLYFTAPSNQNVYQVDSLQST
- Assay type: functional
The source made the active and inactive calls.
Classes used: y = active, n = inactive

O=C(O)c1ccc(NC(=S)NC(=O)c2ccc(-c3ccc(Br)cc3)o2)cc1    y
O=C(O)C1Nc2ccc(Br)cc2C2C=CCC12 (centres undefined)    y
C[C@@H](C(N)=O)n1c(=O)n(Cc2ccccc2)c(=O)n(-c2ccccc2)c1=O    n
COc1cc(C(=S)NCc2ccc(F)c(C(F)(F)F)c2)ccc1O    n
